Tested on: Host Cell
Experiment: Host cell toxicity in the clinical strain panel
Type: cell-based
Conditions: strain MHOM/MA/67/ITMAP263
pEC50: −log10 of the molar value.
MEASUREMENT_NAME: pEC50

Query block: Write down the reported pEC50 of "O=C(Nc1ccc(F)c(-c2ccn3c(N4CCOCC4)cnc3n2)c1)N1CCCC1" , test system: Host Cell.
Result block: < 4.30

====

Experiment: Pharmacokinetics in male CD-1 mice
Assay type: in vivo, mouse
Conditions: male, CD-1, whole blood; mouse, 3 mg/kg iv bolus
MEASUREMENT_NAME: half-life (min)
Report as a plain number; the unit min is understood.

Query block: Can you share its half-life? I mean this molecule: "O=C(Nc1ccc(F)c(-c2ccn3c(N4CCOCC4)cnc3n2)c1)N1CCCC1"
Result block: 39

====

Experiment: Solubility in fasted simulated intestinal fluid (FaSSIF)
Settings: fassif
MEASUREMENT_NAME: solubility
Phrase the answer as number then unit, nothing more needed.

Query block: Can you share its solubility? I mean this compound: "O=C(Nc1ccc(F)c(-c2cn3nc(N4CCOCC4)cnc3n2)c1)N1CCCC1"
Result block: 13 µg/mL

====

Tested on: L. donovani intramacrophage amastigotes
Assay: L. donovani intramacrophage assay (amastigotes in differentiated THP-1 cells)
Assay type: cell-based, Leishmania donovani
Conditions: Leishmania donovani; L. donovani amastigotes in differentiated THP-1 cells; read-out: Intramacrophage EC50
MEASUREMENT_NAME: pEC50
Value format note: pEC50 is -log10 of concentration (mol/L); just state the number.

{"columns": ["SMILES", "ASSAYED_TARGET", "pEC50"],
 "data": [
  ["O=C(Nc1cccc(-c2cn3cc(N4CCOCC4)cnc3n2)c1)N1CCCC1", "L. donovani intramacrophage amastigotes", 5.09],
  ["O=C(Nc1ccc(F)c(-c2cn3nc(-c4ccccc4)cnc3n2)c1)N1CCCC1", "L. donovani intramacrophage amastigotes", 6.46]
]}

Query block: Can you share its pEC50? I mean this compound: "CCOc1cnc2nc(-c3cccc(NC(=O)N4CCCC4)c3)cn2c1"
Result block: 5.48

Query block: Can you share its pEC50? I mean this compound: "O=C(Nc1cccc(-c2cn3cccnc3n2)c1)c1ccco1"
Result block: 4.59

Query block: Can you share its pEC50? I mean this compound: "O=C(Nc1cccc(-c2nc3ncccc3o2)c1)c1ccco1"
Result block: 5.24

Query block: Can you share its pEC50? I mean this compound: "O=C(Nc1ccc(F)c(-c2cn3cc(-c4ccccc4)cnc3n2)c1)N1CCCC1"
Result block: 6.82

Query block: Can you share its pEC50? I mean this compound: "O=C(Nc1ccc(F)c(-c2cn3cc(N4CCOCC4)cnc3n2)c1)N1CCCC1"
Result block: 6.22

Query block: Can you share its pEC50? I mean this compound: "O=C(Nc1ccc(F)c(-c2ccn3c(N4CCOCC4)cnc3n2)c1)N1CCCC1"
Result block: 5.80

Query block: Can you share its pEC50? I mean this compound: "CCOc1cnc2nc(-c3cccc(NC(=O)c4ccco4)c3)cn2c1"
Result block: 5.38

====

Experiment: Pharmacokinetics in male beagle dogs
Format: in vivo, dog
Details: whole blood; Beagle male dog, 10 mg/kg po; read-out: F (oral bioavailability)
MEASUREMENT_NAME: bioavailability (%)
Report as a plain number; the unit % is understood.

Query block: Can you share its bioavailability? I mean this compound: "O=C(Nc1ccc(F)c(-c2ccn3c(N4CCOCC4)cnc3n2)c1)N1CCCC1"
Result block: 46

Each recorded value in this set is attributed to paper PMC6511062.
